read-out: MYC, MYC (gene 4609); test: LTEA_HepaRG_MYC: Life Technologies and Expression Analysis (LTEA) Assay for MYC using HepaRG (AID 2283518); conditions: mRNA level, 48 h; actives raise or lower the signal
Active and inactive are the calls of the source. How the source made its calls: active means hit-call score of the fitted dose curve at least 0.9, where 1 is the maximum; inactive means score below 0.9.
Measurement label: AC50

| Compound | Measurement label | Measurement |
| --- | --- | --- |
| CCc1ccc(C(=O)NN(C(=O)c2cc(C)cc(C)c2)C(C)(C)C)cc1 | AC50 | inactive |
| CCN(CC)C(=O)SCc1ccc(Cl)cc1 | AC50 | inactive |
| CCCN(CCC)c1c([N+](=O)[O-])cc(C(F)(F)F)cc1[N+](=O)[O-] | AC50 | inactive |
| N#Cc1c(Cl)c(Cl)c(Cl)c(C#N)c1Cl | AC50 | 50 µM (active) |
| C[C@H]1[C@H](c2ccc(Cl)cc2)SC(=O)N1C(=O)NC1CCCCC1 | AC50 | 71.1 µM (active) |
| CC(C)(C)C(O)/C(=C\c1ccc(Cl)cc1Cl)n1cncn1 (centres undefined) | AC50 | inactive |

Bench note: what AC50 did Cc1[nH]c(=O)n(C(C)(C)C)c(=O)c1Cl show?
inactive

Could you share which AC50 value was measured for CCC(C)(C)C(=O)OC1=C(c2ccc(Cl)cc2Cl)C(=O)OC12CCCCC2 ?
inactive

Fill in: AC50 of O=S(=O)(O)C(F)(F)C(F)(F)C(F)(F)C(F)(F)C(F)(F)C(F)(F)C(F)(F)C(F)(F)F is ___
50 µM (active) [middle of 4 runs]

---

read-out: Plasminogen activator inhibitor-1 (PAI1), SERPINE1 (gene 5054); assay: BSK_hDFCGF_PAI1: BioMAP Diversity Plus: hDFCGF Assay for Plasminogen activator inhibitor-1 (PAI1) Biomarker Activity (AID 2283066); settings: primary human foreskin fibroblasts; actives raise or lower the signal
Active and inactive are the calls of the source. How the source made its calls: active means hit-call score of the fitted dose curve at least 0.9, where 1 is the maximum; inactive means score below 0.9.
Pick from active, inactive when you respond.

Reference set, count: 5
| Compound | Label class |
| --- | --- |
| COP(=S)(OC)Oc1ccc(SC)c(C)c1 | inactive |
| COC(=O)c1ccccc1S(=O)(=O)NC(=O)Nc1nc(C)nc(OC)n1 | inactive |
| Cc1cc(C)nc(NC(=O)NS(=O)(=O)c2ccccc2C(=O)OC2COC2)n1 | inactive |
| CCCN(CCOc1c(Cl)cc(Cl)cc1Cl)C(=O)n1ccnc1 | active |
| C[C@H]1[C@H](c2ccc(Cl)cc2)SC(=O)N1C(=O)NC1CCCCC1 | inactive |

Any idea what this test logged for COC(=O)c1ccccc1CS(=O)(=O)NC(=O)Nc1nc(OC)cc(OC)n1 ?
inactive

Any idea what this test logged for CCOCN(C(=O)CCl)c1c(C)cccc1CC ?
active

Call for entry CNC(=O)/C=C(\C)OP(=O)(OC)OC :
inactive

Which outcome was assigned to [2H]C1([2H])[n+]2ccccc2-c2cccc[n+]2C1([2H])[2H] in this test?
inactive

Please state the recorded outcome for this compound: N#Cc1c(Cl)c(Cl)c(Cl)c(C#N)c1Cl
active

How was N#CN classified in this test?
inactive

Kindly provide the recorded test outcome for the following compound: ClC1C(Cl)C(Cl)C(Cl)C(Cl)C1Cl (stereo unspecified)
inactive

---

experiment: APR_HepG2_StressKinase_24hr: Apredica 24-hour HepG2 Assay for Stress Kinase (AID 2282922); settings: HepG2 stress kinase (phospho-c-Jun) imaging, actives raise or lower the signal
Activity calls are given as the source filed them. How the source made its calls: active means hit-call score of the fitted dose curve at least 0.9, where 1 is the maximum; inactive means score below 0.9.
Assign a class; possible classes are label 1 = active, label 0 = inactive

| Compound | Label class |
| --- | --- |
| N#Cc1c(Cl)c(Cl)c(Cl)c(C#N)c1Cl | label 0 |
| COC(=O)c1ccccc1S(=O)(=O)NC(=O)Nc1nc(C)nc(OC)n1 | label 0 |
| C#CCN1C(=O)COc2cc(F)c(N3C(=O)C4=C(CCCC4)C3=O)cc21 | label 0 |

Assay outcome for CC(C)(C)C(O)C(Oc1ccc(Cl)cc1)n1cncn1 (stereo not given) : what was it?
label 0

Tell me the assay call for CC[C@H](C)[C@H]1O[C@]2(C=C[C@@H]1C)C[C@@H]1C[C@@H](C/C=C(\C)[C@@H](O[C@H]3C[C@H](OC)[C@@H](O[C@H]4C[C@H](OC)[C@@H](O)[C@H](C)O4)[C@H](C)O3)[C@@H](C)/C=C/C=C3\CO[C@@H]4[C@H](O)C(C)=C[C@@H](C(=O)O1)[C@]34O)O2 (tested in a mixture with another compound) please.
label 0

Hi, sorry to bother you, what did the test record for COP(=S)(OC)Oc1ccc([N+](=O)[O-])cc1 ?
label 0

Test call, this compound: CCN(CC)C(=O)SCc1ccc(Cl)cc1
label 0

Lab log entry: CCCN(CCC)c1c([N+](=O)[O-])cc(C(F)(F)F)cc1[N+](=O)[O-] — outcome as called in the assay?
label 0

Outcome? CCC(C)Nc1c([N+](=O)[O-])cc(C(C)(C)C)cc1[N+](=O)[O-] (stereo not given)
label 0

Assay outcome for COP(=O)(OC)OC=C(Cl)Cl : what was it?
label 0

Dear colleague, could you share the recorded outcome for O=[N+]([O-])c1c(Cl)c(Cl)c(Cl)c(Cl)c1Cl when you have a moment?
label 0

Identify the outcome logged in this assay for the compound shown: CCOC1Oc2ccc(OS(C)(=O)=O)cc2C1(C)C (stereo not given)
label 0

Identify the outcome logged in this assay for the compound shown: COc1nn(CSP(=S)(OC)OC)c(=O)s1
label 0

Recorded test call requested for CC(C)OC(=O)Nc1cccc(Cl)c1
label 0
